molecular target: CycE1-CDK2 (Homo sapiens, UniProt P24941); experiment: Cdk2 Enzymatic TR-FRET Assay; type: biochemical; settings: CDK2/CycE 5 nM, ATP 100 μM, 60 minutes pre-incubation with compound; read-out: CDK2 Kinase
pIC50: −log10 of the molar value.
assay-readout: pIC50

Please review the entries below; each comes with its answer.
CCOCc1cc2cnc(NC3CCN(S(C)(=O)=O)CC3)nc2n(CCCS(=O)(=O)n2cncn2)c1=O; 4.00 to 5.00
O=C(Cn1c(=O)ccc2cnc(NC3CC(F)(F)C3)nc21)Nc1ccc(S(=O)(=O)n2cnc(C3CC3)n2)cc1; > 5.00
CC(C(=O)Nc1ccc(S(=O)(=O)n2cnc(-c3ccccc3)n2)cc1)n1c(=O)ccc2cnc(NC3CCN(S(C)(=O)=O)CC3)nc21 (stereo not shown); > 5.00
CCOCc1cc2cnc(NC3CCN(S(C)(=O)=O)CC3)nc2n(CCCS(=O)(=O)n2cnc(C3CC3)n2)c1=O; 4.00 to 5.00

Item CC(C(=O)Nc1ccc(S(=O)(=O)n2cnc(C3CC3)n2)cc1)n1c(=O)ccc2cnc(NC3CCN(S(C)(=O)=O)CC3)nc21 (stereo not shown) was tested on CycE1-CDK2 (Homo sapiens, UniProt P24941); the reported pIC50 is > 5.00

Item CS(=O)(=O)N1CCC(Nc2ncc3cc(C(F)F)c(=O)n(CCOC(=O)c4ccc(S(=O)(=O)n5cnc(C6CC6)n5)cc4)c3n2)CC1 was tested on CycE1-CDK2 (Homo sapiens, UniProt P24941); the reported pIC50 is > 5.00

Item O=c1ccc2cnc(NC3CCCCCC3)nc2n1CCCS(=O)(=O)n1cnc(C2CC2)n1 was tested on CycE1-CDK2 (Homo sapiens, UniProt P24941); the reported pIC50 is > 5.00

* * *

# pIC50 annotations
target: CycE1-CDK2 (Homo sapiens); experiment: Cdk2 Enzymatic TR-FRET Assay; details: CDK2/CycE 5 nM, ATP 100 μM, 60 minutes pre-incubation with compound; read-out: CDK2 Kinase
pIC50: −log10 of the molar value.

COCCc1cc2cnc(NC3CCN(S(C)(=O)=O)CC3)nc2n(CCCS(=O)(=O)n2cnc(C3CC3)n2)c1=O; > 5.00
CS(=O)(=O)N1CCC(Nc2ncc3ccc(=O)n(CC(=O)NCc4ccc(S(=O)(=O)n5cncn5)cc4)c3n2)CC1; > 5.00
Cc1cc2cnc(NC3CCN(S(C)(=O)=O)CC3)nc2n(CCCS(=O)(=O)n2cnc(C3CC3)n2)c1=O; > 5.00
CS(=O)(=O)N1CCC(Nc2ncc3cc(CO)c(=O)n(CCCS(=O)(=O)n4cnc(-c5ccccc5)n4)c3n2)CC1; > 5.00
CS(=O)(=O)N1CCC(Nc2ncc3ccc(=O)n(CCOCCCS(=O)(=O)n4cnc(C5CC5)n4)c3n2)CC1; > 5.00
CS(=O)(=O)N1CCC(Nc2ncc3ccc(=O)n(CC(=O)Nc4ccc(S(=O)(=O)n5cnc(-c6ccccc6)n5)cc4)c3n2)CC1; > 5.00
O=C(Cn1c(=O)ccc2cnc(NCC3CC3)nc21)Nc1ccc(S(=O)(=O)n2cnc(C3CC3)n2)cc1; < 3.70
CC(C)(C)c1ncn(S(=O)(=O)c2ccc(NC(=O)Cn3c(=O)ccc4cnc(NC5CCN(S(C)(=O)=O)CC5)nc43)cc2)n1; < 3.70

Query molecule follows.
For this molecule ( CS(=O)(=O)N1CCC(Nc2ncc3cc(C(F)F)c(=O)n(CC(=O)Nc4ccc(S(=O)(=O)n5cnc(C6CC6)n5)cc4)c3n2)CC1 ), measured pIC50 is > 5.00

* * *

target: CycE1-CDK2 (Homo sapiens); assay: Cdk2 Enzymatic TR-FRET Assay; details: CDK2/CycE 5 nM, ATP 100 μM, 60 minutes pre-incubation with compound; read-out: CDK2 Kinase
# IC50 annotations

Please review the entries below; each comes with its answer.
CS(=O)(=O)N1CCC(Nc2ncc3ccc(=O)n(CC(=O)Nc4ccc(S(=O)(=O)n5cnc(C6CC6)n5)cc4)c3n2)CC1; < 10 µM
CC(C)CNc1ncc2ccc(=O)n(CC(=O)Nc3ccc(S(=O)(=O)n4cnc(C5CC5)n4)cc3)c2n1; > 200 µM
CC(C)c1ncn(S(=O)(=O)c2ccc(NC(=O)Cn3c(=O)ccc4cnc(NC5CCN(S(C)(=O)=O)CC5)nc43)cc2)n1; < 10 µM

Item CS(=O)(=O)N1CCC(Nc2ncc3ccc(=O)n(CC(=O)Nc4ccc(S(=O)(=O)n5cncn5)cc4)c3n2)CC1 was tested on CycE1-CDK2 (Homo sapiens); the reported IC50 is < 10 µM

Item O=C(Cn1c(=O)ccc2cnc(NC3CCCCCC3)nc21)Nc1ccc(S(=O)(=O)n2cnc(C3CC3)n2)cc1 was tested on CycE1-CDK2 (Homo sapiens); the reported IC50 is > 200 µM

Item Cc1cc(NC(=O)Cn2c(=O)ccc3cnc(NC4CCN(S(C)(=O)=O)CC4)nc32)ccc1S(=O)(=O)n1cnc(C2CC2)n1 was tested on CycE1-CDK2 (Homo sapiens); the reported IC50 is < 10 µM

Item CN1CCC(Nc2ncc3ccc(=O)n(CC(=O)Nc4ccc(S(=O)(=O)n5cnc(C6CC6)n5)cc4)c3n2)CC1 was tested on CycE1-CDK2 (Homo sapiens); the reported IC50 is > 200 µM

* * *

Molecular target: CycE1-CDK2 (Homo sapiens)
Test: Cdk2 Enzymatic TR-FRET Assay
Conditions: CDK2/CycE 5 nM, ATP 100 μM, 60 minutes pre-incubation with compound; read-out: CDK2 Kinase
Excerpt: A TR-FRET system was used to detect CycE1-CDK2 kinase activity. The assay used a Europium-labeled anti-phospho-Ser/Thr antibody and ULight™-labeled peptide substrate (eIF4E-binding protein 1). When CycE1-CDK2 phosphorylates the peptide the phosphorylated Thr is recognized by the Europium-labeled anti-phospho-Ser/Thr antibody. Upon excitation of the Europium donor fluorophore at 337 nm, energy is transferred to the ULight™ acceptor dye on the substrate, resulting in the emission of light at 665 nm. […]
pIC50: −log10 of the molar value.
assay-readout: pIC50

For this compound ( CCOC(=O)Cc1ncn(S(=O)(=O)c2ccc(NC(=O)Cn3c(=O)ccc4cnc(NC5CCN(S(C)(=O)=O)CC5)nc43)cc2)n1 [Compound 260] ), measured pIC50 is > 5.00

For this compound ( CS(=O)(=O)N1CCC(Nc2ncc3ccc(=O)n(CCCS(=O)(=O)n4cncn4)c3n2)CC1 [Compound 244] ), measured pIC50 is > 5.00

For this compound ( CS(=O)(=O)N1CCC(Nc2ncc3ccc(=O)n(Cc4ccc(S(=O)(=O)n5cncn5)cc4)c3n2)CC1 [Compound 241] ), measured pIC50 is > 5.00

* * *

# IC50 annotations
target: CycE1-CDK2 (Homo sapiens, UniProt P24941); experiment: Cdk2 Enzymatic TR-FRET Assay; type: biochemical; details: CDK2/CycE 5 nM, ATP 100 μM, 60 minutes pre-incubation with compound; read-out: CDK2 Kinase

CS(=O)(=O)N1CCC(Nc2ncc3ccc(=O)n(CC(=O)Nc4ccc(S(=O)(=O)n5cnc(C6CCC6)n5)cc4)c3n2)CC1 [Compound 258]; > 200 µM
CS(=O)(=O)N1CCC(Nc2ncc3ccc(=O)n(CCCS(=O)(=O)n4cnc(C5CC5)n4)c3n2)CC1 [Compound 245]; < 10 µM

Query molecule follows.
For this molecule ( CS(=O)(=O)N1CCC(Nc2ncc3cc(C(F)F)c(=O)n(CCOC(=O)c4ccc(S(=O)(=O)n5cncn5)cc4)c3n2)CC1 [Compound 226] ), measured IC50 is < 10 µM

* * *

# IC50 annotations
biological target: CycE1-CDK2 (Homo sapiens); assay: Cdk2 Enzymatic TR-FRET Assay; conditions: CDK2/CycE 5 nM, ATP 100 μM, 60 minutes pre-incubation with compound; read-out: CDK2 Kinase

Cc1cc(NC(=O)Cn2c(=O)ccc3cnc(NC4CCN(S(C)(=O)=O)CC4)nc32)ccc1S(=O)(=O)n1cncn1; < 10 µM
CS(=O)(=O)N1CCC(Nc2ncc3cc(CCO)c(=O)n(CCCS(=O)(=O)n4cncn4)c3n2)CC1; < 10 µM
CS(=O)(=O)N1CCC(Nc2ncc3ccc(=O)n(CC(=O)Nc4ccc(S(=O)(=O)n5cnc(CO)n5)cc4)c3n2)CC1; < 10 µM
O=c1ccc2cnc(NCC3CC3)nc2n1CCCS(=O)(=O)n1cnc(C2CC2)n1; 10 to 100 µM
CS(=O)(=O)N1CCC(Nc2ncc3cc(CO)c(=O)n(CCCS(=O)(=O)n4cnc(C5CC5)n4)c3n2)CC1; < 10 µM

For this compound ( CCOCc1cc2cnc(NC3CCN(S(C)(=O)=O)CC3)nc2n(CCCS(=O)(=O)n2cnc(-c3ccccc3)n2)c1=O ), measured IC50 is > 200 µM

For this compound ( CS(=O)(=O)N1CCC(Nc2ncc3ccc(=O)n(CC(=O)Nc4ccc(S(=O)(=O)n5cnc(C6CCCC6)n5)cc4)c3n2)CC1 ), measured IC50 is > 200 µM
